- assay.protocol: reduction of polyQ htt aggregates in cells – imaging, exon1htt(103Q)mCFP cells, high-content imaging, primary screen (AID 483);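 note: compound exposure lasted 3 days before fixation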
- setup.conditions: exon1htt(103Q)mCFP cell line, aggregate imaging, at 2 µM; stronger effect = higher value
Calls of active or inactive are those of the source.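 Rule for the calls: active = visual image review flags a hit and inhibition of aggregation exceeds 20%; inconclusive = visual hit but inhibition at or below 20%; inactive = no hit on visual image review.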
property: inhibition of aggregation

{"columns": ["molecule", "property", "observed.measurement"],
 "data": [
  ["Cc1cnc(C(=O)Nc2ccc(-n3cnnn3)cc2)cn1", "inhibition of aggregation", "-8.7% (inactive)"],
  ["Cc1cc(NC(=O)c2ccc3nc(-c4ccccc4)c(-c4ccccc4)nc3c2)no1", "inhibition of aggregation", "-14.8% (inactive)"],
  ["Cc1nc2ccccc2cc1C(=O)NCc1ccco1", "inhibition of aggregation", "-3.6% (inactive)"],
  ["CCOC(=O)c1sc2ncn(/N=C/N(C)C)c(=O)c2c1C", "inhibition of aggregation", "40.3% (active)"],
  ["Cc1cc(NC(=O)CSc2nc3ccsc3c(=O)n2NC(=O)c2ccccc2)no1", "inhibition of aggregation", "-4.7% (inactive)"],
  ["CCOC(=O)c1c(NC(=O)c2ccoc2C)sc2c1CCC2", "inhibition of aggregation", "-0.4% (inactive)"],
  ["Cc1ccc2nc(NC(=O)C3CCN(S(=O)(=O)c4cccc5nsnc45)CC3)sc2c1", "inhibition of aggregation", "-1.9% (inactive)"],
  ["CCN(CC)C(=O)c1ccc(NS(=O)(=O)c2ccccc2)cc1", "inhibition of aggregation", "-9.8% (inactive)"]
]}

# inhibition of aggregation lookup, item COc1cccc(-n2nnc3c(=O)n(Cc4cccc(F)c4)cnc32)c1
-11.5% (inactive)

# inhibition of aggregation lookup, item CCOCCCNCC(=O)N1CCN(S(=O)(=O)c2ccc(C)cc2)CC1
-0.2% (inactive)

# inhibition of aggregation lookup, item N#CC1=C(N)Oc2n[nH]c(-c3cccs3)c2C1c1cccs1 (stereo unspecified)
4.7% (inactive)
